This section presents compounds with their documented Ratio values.
Biological target: Dopamine D2 receptor and serotonin 2a receptor (Homo sapiens) (UniProt P14416+P28223)
Sequence (P14416 whole entry, looked up): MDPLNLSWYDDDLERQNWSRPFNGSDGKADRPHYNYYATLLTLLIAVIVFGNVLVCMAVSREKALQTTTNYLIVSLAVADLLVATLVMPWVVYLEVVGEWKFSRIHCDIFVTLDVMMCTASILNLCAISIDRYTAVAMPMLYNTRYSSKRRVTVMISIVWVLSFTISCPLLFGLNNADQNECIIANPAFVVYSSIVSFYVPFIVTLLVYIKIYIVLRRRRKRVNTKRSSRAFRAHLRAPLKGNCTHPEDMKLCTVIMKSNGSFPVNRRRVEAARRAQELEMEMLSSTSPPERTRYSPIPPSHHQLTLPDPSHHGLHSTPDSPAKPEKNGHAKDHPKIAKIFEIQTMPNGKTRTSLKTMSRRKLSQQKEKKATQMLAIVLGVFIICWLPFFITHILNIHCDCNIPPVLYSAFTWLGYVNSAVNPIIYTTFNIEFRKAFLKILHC
Sequence (P28223 whole entry, looked up): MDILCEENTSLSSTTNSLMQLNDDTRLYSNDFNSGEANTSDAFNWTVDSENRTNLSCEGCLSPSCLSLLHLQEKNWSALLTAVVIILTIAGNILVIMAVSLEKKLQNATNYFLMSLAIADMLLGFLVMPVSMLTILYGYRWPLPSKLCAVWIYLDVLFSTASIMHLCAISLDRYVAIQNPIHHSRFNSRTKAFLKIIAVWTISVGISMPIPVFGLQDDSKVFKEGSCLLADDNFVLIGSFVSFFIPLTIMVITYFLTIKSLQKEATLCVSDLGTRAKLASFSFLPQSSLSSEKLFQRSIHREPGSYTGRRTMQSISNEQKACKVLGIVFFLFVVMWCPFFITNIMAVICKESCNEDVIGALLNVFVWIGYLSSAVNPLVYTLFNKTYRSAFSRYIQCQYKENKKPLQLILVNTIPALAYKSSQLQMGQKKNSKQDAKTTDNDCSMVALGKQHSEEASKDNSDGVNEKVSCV
Experiment: Selectivity as ratio of Ki against human dopamine D2 and 5-HT2A receptors
Assay type: protein assay
API doc: respond with a numeric literal and nothing else, no unit.

Look over these answered cases.
c1ccc(CCN2C3CCC2CC(N2CCC(c4c(-c5ccccc5)[nH]c5ccccc45)CC2)C3)cc1 (stereo in doubt; 17) :: 1080
CN1CCC(c2c(-c3ccccc3)[nH]c3ccccc23)CC1 :: 205
c1ccc(CCN2CCC(c3c(-c4ccccc4)[nH]c4ccccc34)CC2)cc1 :: 690
c1ccc(CCN2C3CCC2CC(N2CCC(c4c(-c5ccccc5)[nH]c5ccccc45)CC2)C3)cc1 (stereo in doubt; 18) :: 170
c1ccc(-c2[nH]c3ccccc3c2C2CCNCC2)cc1 :: 130
c1ccc(-c2[nH]c3ccccc3c2C2CC3CCC(C2)N3)cc1 (stereo unspecified) :: 1060

**Query** What value of Ratio has been reported for the following compound? CN1[C@@H]2CC[C@H]1C[C@H](N1CCC(c3c(-c4ccccc4)[nH]c4ccccc34)CC1)C2 (stereo in doubt; 13)
**Result** 1190

**Query** Can you handle "c1ccc(CN2CCC(c3c(-c4ccccc4)[nH]c4ccccc34)CC2)cc1" next?
**Result** 2

**Query** How about CN1[C@@H]2CC[C@H]1C[C@H](N1CCC(c3c(-c4ccccc4)[nH]c4ccccc34)CC1)C2 (stereo in doubt; 15) ?
**Result** 960

**Query** Same for "c1ccc(-c2[nH]c3ccccc3c2CCN2CCCCC2)cc1"
**Result** 330

**Query** Also need "O=C1NCCN1CCN1CCC(c2c(-c3ccccc3)[nH]c3ccccc23)CC1" , thanks.
**Result** 250

----------
Reported bioavailability by item:
Assay: Oral bioavailability in rat
Type: ADME, organism-based
Settings: in vivo
Respond with the bare value in %.

O=C1NCCN1CCN1CCC(c2c(-c3ccccc3)[nH]c3ccccc23)CC1 :: 40
c1ccc(CCN2CCC(c3c(-c4ccccc4)[nH]c4ccccc34)CC2)cc1 :: 12

Now for a further molecule.
**Query** What value of bioavailability has been recorded for this entry: c1ccc(CCN2C3CCC2CC(N2CCC(c4c(-c5ccccc5)[nH]c5ccccc45)CC2)C3)cc1 (stereo in doubt; 17)
**Result** 18

----------
Assay: Oral bioavailability was determined in dogs
Assay type: ADME, organism-based, Canis lupus familiaris
Conditions: dog, in vivo, read-out: Bioavailabiility
reported property: bioavailability (%)
Report the value in % with no unit label.

**Query** If you can, please state the reported bioavailability value of "O=C1NCCN1CCN1CCC(c2c(-c3ccccc3)[nH]c3ccccc23)CC1" .
**Result** 33

----------
Heads up, these molecules all have pKi values measured for 5-hydroxytryptamine receptor 2A (Homo sapiens, UniProt P28223).
In plain terms, pKi is the concentration in mol/L turned into minus its base-10 logarithm.

Use the examples below as a reference point.
c1ccc(CN2CCC(c3c(-c4ccccc4)[nH]c4ccccc34)CC2)cc1 :: 7.55
CN1[C@@H]2CC[C@H]1C[C@H](N1CCC(c3c(-c4ccccc4)[nH]c4ccccc34)CC1)C2 (stereo in doubt; 13) :: 8.96
c1ccc(CCN2C3CCC2CC(N2CCC(c4c(-c5ccccc5)[nH]c5ccccc45)CC2)C3)cc1 (stereo in doubt; 18) :: 8.59
CN1[C@@H]2CC[C@H]1C[C@H](N1CCC(c3c(-c4ccccc4)[nH]c4ccccc34)CC1)C2 (stereo in doubt; 15) :: 8.82
c1ccc(-c2[nH]c3ccccc3c2C2CC3CCC(C2)N3)cc1 (stereo unspecified) :: 8.74

**Query** Fill blank: measured pKi of the molecule c1ccc(CCN2C3CCC2CC(N2CCC(c4c(-c5ccccc5)[nH]c5ccccc45)CC2)C3)cc1 (stereo in doubt; 17) is ____.
**Result** 8.92

----------
compounds and their reported Ratio
Biological target: Serotonin 2 receptors; 5-HT2a & 5-HT2c (Homo sapiens) (UniProt P28223+P28335)
Sequence (P28335 whole entry, looked up, one chain of several): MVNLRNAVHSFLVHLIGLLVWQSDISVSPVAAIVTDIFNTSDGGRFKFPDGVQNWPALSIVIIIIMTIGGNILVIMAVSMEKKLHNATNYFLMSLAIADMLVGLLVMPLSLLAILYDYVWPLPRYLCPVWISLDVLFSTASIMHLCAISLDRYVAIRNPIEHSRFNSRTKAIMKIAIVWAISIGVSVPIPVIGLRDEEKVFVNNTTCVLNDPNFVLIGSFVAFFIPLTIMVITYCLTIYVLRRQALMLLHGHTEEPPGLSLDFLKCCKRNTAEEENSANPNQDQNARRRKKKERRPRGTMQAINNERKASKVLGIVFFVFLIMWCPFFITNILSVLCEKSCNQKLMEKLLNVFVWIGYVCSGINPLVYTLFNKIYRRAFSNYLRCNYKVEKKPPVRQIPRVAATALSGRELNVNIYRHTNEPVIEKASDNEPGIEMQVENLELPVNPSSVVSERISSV
Experiment: Selectivity as ratio of Ki against human 5-HT2C and 5-HT2A receptors
Format: protein assay
Number only, please.

Look over these answered cases.
O=C1NCCN1CCN1CCC(c2c(-c3ccccc3)[nH]c3ccccc23)CC1 :: 160
c1ccc(CCN2CCC(c3c(-c4ccccc4)[nH]c4ccccc34)CC2)cc1 :: 160
c1ccc(CN2CCC(c3c(-c4ccccc4)[nH]c4ccccc34)CC2)cc1 :: 30
CN1[C@@H]2CC[C@H]1C[C@H](N1CCC(c3c(-c4ccccc4)[nH]c4ccccc34)CC1)C2 (stereo in doubt; 13) :: 70
c1ccc(-c2[nH]c3ccccc3c2CCN2CCCCC2)cc1 :: 100
c1ccc(-c2[nH]c3ccccc3c2C2CCNCC2)cc1 :: 30
CN1[C@@H]2CC[C@H]1C[C@H](N1CCC(c3c(-c4ccccc4)[nH]c4ccccc34)CC1)C2 (stereo in doubt; 15) :: 45
c1ccc(CCN2C3CCC2CC(N2CCC(c4c(-c5ccccc5)[nH]c5ccccc45)CC2)C3)cc1 (stereo in doubt; 18) :: 60

**Query** Find the recorded Ratio belonging to "CN1CCC(c2c(-c3ccccc3)[nH]c3ccccc23)CC1" and report it.
**Result** 30

**Query** Same again, this time with c1ccc(-c2[nH]c3ccccc3c2C2CC3CCC(C2)N3)cc1 (stereo unspecified)
**Result** 200

**Query** Also need c1ccc(CCN2C3CCC2CC(N2CCC(c4c(-c5ccccc5)[nH]c5ccccc45)CC2)C3)cc1 (stereo in doubt; 17) , thanks.
**Result** 860
